Tested on: SW-620 colon
assay_explanation: NCI-60 one-dose screen, 48 h
settings: 10 µM unless noted
The panel holds about 83,000 compounds, 20% with a hit somewhere; the sample as a whole holds those more often. Active and inactive are the calls of the source. How the source made its calls: active means growth percent below 10; inactive means the rest.
One label from this list, please: True = active, False = inactive

Observe how each entry below is paired with its result.
[[record]]
molecule = "Cc1ccc(C(=O)Nc2ccc(CN3CCN(C)CC3)c(C(F)(F)F)c2)cc1C#Cc1cnc(N)cc1C#N"
class_name = "True"

[[record]]
molecule = "COc1ccc(-c2cc(-c3cccnc3)nc3sc4c(Cl)nnnc4c23)cc1OC"
class_name = "False"

[[record]]
molecule = "COc1ccc2c(c1)CCNC21C(=O)Nc2c(Br)cc(Br)cc21 (configuration not stated)"
class_name = "False"

[[record]]
molecule = "Cc1ccc(/C=C(\\C#N)c2cc3ccccc3[nH]2)cc1"
class_name = "False"

[[record]]
molecule = "COc1ccc(C/C(C)=C(/c2ccc(OCCN3CCCC3)cc2)c2ccc(OC(=O)NCc3ccccc3)cc2)cc1"
class_name = "False"


Ask: Query: recorded result category for O=C1/C(=C/c2ccc(-c3cccc(C(F)(F)F)c3)o2)SC(=S)N1CCc1ccc(O)cc1 in this test
Reply: False

Ask: Query: recorded result category for Cc1ccc(/C=C/c2c(C(=O)/C=C/c3ccccc3)c(C)nc3ccccc23)cc1 in this test
Reply: True

Ask: Query: recorded result category for NC1=CC(=O)c2cccnc2C1=O in this test
Reply: True

Ask: Query: recorded result category for Nc1ncnc2c1C(c1ccc([N+](=O)[O-])cc1)c1sc3c(F)cccc3c1O2 (configuration not stated) in this test
Reply: False
